- Test System: Peroxisome proliferator-activated receptor alpha (Homo sapiens) (UniProt Q07869)
- Sequence (Q07869 whole entry): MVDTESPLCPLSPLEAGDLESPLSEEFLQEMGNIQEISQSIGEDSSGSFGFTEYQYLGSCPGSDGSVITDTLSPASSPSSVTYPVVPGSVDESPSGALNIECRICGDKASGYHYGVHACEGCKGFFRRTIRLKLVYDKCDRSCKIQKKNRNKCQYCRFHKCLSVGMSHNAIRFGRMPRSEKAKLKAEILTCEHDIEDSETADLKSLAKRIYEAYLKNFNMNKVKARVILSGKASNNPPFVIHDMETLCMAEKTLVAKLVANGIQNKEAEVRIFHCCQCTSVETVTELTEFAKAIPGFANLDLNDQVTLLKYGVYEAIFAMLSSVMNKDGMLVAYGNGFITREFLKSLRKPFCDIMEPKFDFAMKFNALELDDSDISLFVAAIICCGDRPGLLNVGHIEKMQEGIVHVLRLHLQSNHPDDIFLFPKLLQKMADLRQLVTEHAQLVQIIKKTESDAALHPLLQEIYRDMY
- Experiment Notes: Displacement of [3H]-agonist from human PPARalpha expressed in baculovirus infecetd Sf9 cells system up to 30 uM after 10 hrs in presence of DR2 by scintillation proximity assay
Activity calls are given as the source filed them. The rule behind the calls is not given here.
Readout: Activity

Reference set (4 entries):
given_smiles=CC#C[C@@H](CC(=O)O)c1ccc(OCc2ccc3nc(-c4c(C)cc(OCCCS(C)(=O)=O)cc4C)nn3c2)cc1 readout=Activity observed_result=inactive
given_smiles=CC#C[C@@H](CC(=O)O)c1ccc(OCc2ccc3nc(-c4ccc(OC(F)F)cc4)nn3c2)cc1 readout=Activity observed_result=inactive
given_smiles=CC#C[C@@H](CC(=O)O)c1ccc(OCc2ccc3nc(-c4ccc(OCCOC)cc4)nn3c2)cc1 readout=Activity observed_result=inactive
given_smiles=CC#C[C@@H](CC(=O)O)c1ccc(OCc2ccc3nc(-c4ccc(C#N)cc4)nn3c2)cc1 readout=Activity observed_result=inactive

Summary for this compound, `CC#C[C@@H](CC(=O)O)c1ccc(OCc2ccc3nc(-c4ccc(OCCC(C)(C)O)cc4)nn3c2)cc1` : Activity is inactive

Summary for this compound, `CC#C[C@@H](CC(=O)O)c1ccc(OCc2ccc3nc(-c4ccc(C(C)C)cc4)nn3c2)cc1` : Activity is inactive

Summary for this compound, `CC#C[C@@H](CC(=O)O)c1ccc(OCc2ccc3nc(-c4c(C)cccc4C)nn3c2)cc1` : Activity is inactive

* * *

- Experiment Notes: Cmax in Sprague-Dawley rat at 1 mg/kg, po
- Type: ADME, organism-based
- Design: dose 1 mg/kg, route oral
- Condition Set: in vivo
Readout: Cmax (ng/mL)
# unit: ng/mL | format: bare number

Summary for this molecule, `CC#C[C@@H](CC(=O)O)c1ccc(OCc2ccc3nc(-c4c(C)cccc4C)nn3c2)cc1` : Cmax is 3380

* * *

Overview of recorded pEC50 for various compounds
- Test System: Free fatty acid receptor 1 (Homo sapiens)
- Sequence (O14842 whole entry): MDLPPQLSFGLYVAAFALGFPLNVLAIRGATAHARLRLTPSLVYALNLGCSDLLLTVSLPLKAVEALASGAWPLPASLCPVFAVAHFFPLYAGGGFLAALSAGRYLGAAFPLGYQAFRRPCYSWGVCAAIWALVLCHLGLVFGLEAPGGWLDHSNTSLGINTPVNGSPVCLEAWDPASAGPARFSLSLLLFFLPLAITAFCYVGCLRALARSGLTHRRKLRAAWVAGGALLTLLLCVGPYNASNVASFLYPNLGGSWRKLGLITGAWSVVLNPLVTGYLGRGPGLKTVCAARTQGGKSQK
- Experiment Notes: Agonist activity at human GPR40 receptor expressed in HEK293 cells assessed as increase in intracellular calcium flux after 2.5 hrs measured over 3 mins by calcium 4 dye-based FLIPR assay
- Format: functional, cell-based
In plain terms, pEC50 is the concentration in mol/L turned into minus its base-10 logarithm.

given_smiles=CC#C[C@@H](CC(=O)O)c1ccc(OCc2ccc3nc(-c4ccc(C#N)cc4)nn3c2)cc1 observed_result=8.05

Let us move to another entry and its pEC50.
Summary for this compound, `CC#C[C@@H](CC(=O)O)c1ccc(OCc2ccc3nc(-c4c(C)cc(OCCCS(C)(=O)=O)cc4C)nn3c2)cc1` : pEC50 is 6.93

* * *

- Experiment Notes: Drug metabolism in rat hepatocytes assessed as glucuronidation
- Assay type: ADME, cell-based, Hepatocyte
Readout: Drug metabolism

given_smiles=CC#C[C@@H](CC(=O)O)c1ccc(OCc2ccc(CN3CCCc4cccc(OC)c43)s2)cc1 observed_result=Metabolite_Detected
given_smiles=CC#C[C@@H](CC(=O)O)c1ccc(OCc2ccc(CN3CCC4(C=Cc5ccccc54)CC3)cc2)cc1 observed_result=Metabolite_Detected
given_smiles=CC#C[C@@H](CC(=O)O)c1ccc(OCc2ccc(N3CCC4(CCc5ccccc54)CC3)s2)cc1 observed_result=Metabolite_Detected
given_smiles=CC#C[C@@H](CC(=O)O)c1ccc(OCc2ccc3nc(-c4c(C)cccc4C)nn3c2)cc1 observed_result=Metabolite_Detected
